Data credit: paper PMC3424542

Biological target: T1, XtrLin28b ZKD H155A (Xenopus tropicalis, UniProt B4F6I0 125-175, H155A)
T1 sequence: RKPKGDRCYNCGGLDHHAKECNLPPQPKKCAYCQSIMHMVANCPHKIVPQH
Test: ITC
QUANTITY_KIND: pKd
# log scale: pKd equals minus log10 of the concentration in mol/L

Input line: Which pKd reading was recorded for the binder AAGGAGAA (ssRNA) [rZ1] ?
Output line: 5.59
